biological target: Nuclear receptor coactivator 3 (Homo sapiens) (UniProt Q9Y6Q9); experiment: SRC3 coactivator transcriptional activity inhibitors, confirmation, cell-based, luminescence, quadruplicate (AID 588792); conditions: HEK293 GAL4-SRC3 luciferase reporter, at 3.6 µM
Sequence (Q9Y6Q9 whole entry, looked up, the tested form may be a part): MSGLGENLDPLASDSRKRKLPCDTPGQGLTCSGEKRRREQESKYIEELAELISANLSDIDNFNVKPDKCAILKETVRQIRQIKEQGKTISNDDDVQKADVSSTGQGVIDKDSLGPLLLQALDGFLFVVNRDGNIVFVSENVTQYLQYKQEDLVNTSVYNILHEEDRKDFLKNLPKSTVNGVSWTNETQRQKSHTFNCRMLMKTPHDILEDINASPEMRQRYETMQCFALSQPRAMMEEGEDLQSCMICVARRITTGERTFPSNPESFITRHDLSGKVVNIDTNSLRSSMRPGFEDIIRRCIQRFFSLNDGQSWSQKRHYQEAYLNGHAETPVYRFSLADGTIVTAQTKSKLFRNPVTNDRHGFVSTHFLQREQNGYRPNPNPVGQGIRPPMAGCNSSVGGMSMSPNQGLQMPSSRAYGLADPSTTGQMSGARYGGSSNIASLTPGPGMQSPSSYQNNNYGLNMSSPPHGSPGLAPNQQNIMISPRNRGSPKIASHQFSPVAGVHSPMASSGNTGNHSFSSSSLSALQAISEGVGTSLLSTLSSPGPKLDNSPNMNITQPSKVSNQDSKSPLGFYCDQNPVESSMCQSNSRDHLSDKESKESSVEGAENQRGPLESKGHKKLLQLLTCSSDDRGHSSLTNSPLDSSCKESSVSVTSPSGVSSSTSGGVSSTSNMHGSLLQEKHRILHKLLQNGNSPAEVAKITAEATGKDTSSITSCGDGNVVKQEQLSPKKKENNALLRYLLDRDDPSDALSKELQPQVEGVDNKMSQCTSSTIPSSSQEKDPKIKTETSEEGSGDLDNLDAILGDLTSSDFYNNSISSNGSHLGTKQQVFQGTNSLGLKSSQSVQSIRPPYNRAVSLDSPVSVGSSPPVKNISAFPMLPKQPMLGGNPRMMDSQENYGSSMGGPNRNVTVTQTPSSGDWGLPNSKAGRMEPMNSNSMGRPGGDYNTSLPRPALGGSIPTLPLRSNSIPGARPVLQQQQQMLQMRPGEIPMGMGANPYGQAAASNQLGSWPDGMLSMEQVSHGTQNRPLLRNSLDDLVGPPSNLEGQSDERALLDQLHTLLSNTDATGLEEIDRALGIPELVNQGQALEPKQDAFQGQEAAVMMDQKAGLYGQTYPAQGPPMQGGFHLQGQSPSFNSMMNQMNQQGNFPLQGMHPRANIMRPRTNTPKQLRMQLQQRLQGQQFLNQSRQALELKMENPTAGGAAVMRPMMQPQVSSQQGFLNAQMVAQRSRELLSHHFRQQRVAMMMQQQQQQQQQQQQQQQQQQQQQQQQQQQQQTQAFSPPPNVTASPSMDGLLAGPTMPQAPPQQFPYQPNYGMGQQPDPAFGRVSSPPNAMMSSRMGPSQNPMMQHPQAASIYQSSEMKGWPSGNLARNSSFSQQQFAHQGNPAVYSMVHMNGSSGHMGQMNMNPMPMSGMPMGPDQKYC
Active and inactive are the calls of the source.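 The calls were made as follows: active = mean inhibition over 43.08%, the solvent-only control mean plus 3 SD; inactive = the rest.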
Outcomes: y for active, n for inactive

# structure_notation, assigned_label
measured = [
    ("O=S(=O)(/C(=C/c1ccc(C(F)(F)F)cc1)c1nc2ccccc2[nH]1)c1ccccc1", "y"),
    ("Cn1c(CC(=O)Nc2ccc(Cl)c(Cl)c2)nnc1SCC(=O)N1CCN(c2ccccc2)CC1", "n"),
    ("C[C@@H]1C[C@@H]2O[C@H]2/C=C\\C=C\\C(=O)Cc2c(Cl)c(O)cc(O)c2C(=O)O1", "y"),
    ("NS(=O)(=O)c1ccc(NC(=O)/C=C/c2ccc3c(c2)OCO3)cc1", "n"),
    ("Cc1cccc(CN2CCN(C(=O)CCl)CC2)c1", "n"),
    ("Clc1ccc2nnnc(-c3ccccc3)c2c1", "y"),
    ("CS(=O)(=O)N(CCC#N)Cc1ccc(/C=C2\\C(=O)Nc3ccccc32)o1", "y"),
    ("Cc1cccn2c(=O)c3cc(C(=O)NCCN4CCOCC4)c(=N)n(Cc4ccc(F)cc4)c3nc12", "n"),
    ("O=S(=O)(/C(=C\\c1ccc(C(F)(F)F)cc1)c1nc2ccccc2[nH]1)c1ccccc1", "y"),
]
